Test system: Escherichia coli
Assay: Antimicrobial activity against Escherichia coli ATCC 25922 incubated for 18 hrs by serial microdilution method
Type: functional
Details: ATCC 25922, 18 h
Assay readout: MIC

Below, each entry is followed by its recorded MIC result.
CO[C@H]1/C=C/O[C@@]2(C)Oc3c(C)c(O)c4c(O)c(c(/C=N/N5CCOCC5)c(O)c4c3C2=O)NC(=O)/C(C)=C\C=C\[C@H](C)[C@H](O)[C@@H](C)[C@@H](O)[C@@H](C)[C@H](OC(C)=O)[C@@H]1C	> 8 µg/mL
CO[C@H]1/C=C/O[C@@]2(C)Oc3c(C)c(O)c4c(O)c(c(CNCCN5CCCC5=O)c(O)c4c3C2=O)NC(=O)/C(C)=C\C=C\[C@H](C)[C@H](O)[C@@H](C)[C@@H](O)[C@@H](C)[C@H](OC(C)=O)[C@@H]1C	> 8 µg/mL

--- query ---
Reported MIC ( CCS(=O)(=O)N1CCN(Cc2c3c(O)c4c(O)c(C)c5c(c4c2O)C(=O)[C@@](C)(O/C=C/[C@H](OC)[C@@H](C)[C@@H](OC(C)=O)[C@H](C)[C@H](O)[C@H](C)[C@@H](O)[C@@H](C)/C=C/C=C(/C)C(=O)N3)O5)CC1 ) = > 8 µg/mL

----------
Tested on: Enterococcus faecalis
Assay: Antimicrobial activity against Enterococcus faecalis ATCC 29212 incubated for 18 hrs by serial microdilution method
Format: functional
Settings: ATCC 29212, 18 h
Record form. Attribute: MIC. Fill in for each entry.
Give bare numbers, in µg/mL.

CO[C@H]1/C=C/O[C@@]2(C)Oc3c(C)c(O)c4c(O)c(c(/C=N/NC5CCCCC5)c(O)c4c3C2=O)NC(=O)/C(C)=C\C=C\[C@H](C)[C@H](O)[C@@H](C)[C@@H](O)[C@@H](C)[C@H](OC(C)=O)[C@@H]1C	1

Give measured MIC for every item shown.
1. CO[C@H]1/C=C/O[C@@]2(C)Oc3c(C)c(O)c4c(O)c(c(/C=N/N5CCN(C)CC5)c(O)c4c3C2=O)NC(=O)/C(C)=C\C=C\[C@H](C)[C@H](O)[C@@H](C)[C@@H](O)[C@@H](C)[C@H](OC(C)=O)[C@@H]1C
2. CO[C@H]1/C=C/O[C@@]2(C)Oc3c(C)c(O)c4c(O)c(c(CNC5CCN(C(=O)OC(C)(C)C)CC5)c(O)c4c3C2=O)NC(=O)/C(C)=C\C=C\[C@H](C)[C@H](O)[C@@H](C)[C@@H](O)[C@@H](C)[C@H](OC(C)=O)[C@@H]1C
3. CO[C@H]1/C=C/O[C@@]2(C)Oc3c(C)c(O)c4c(O)c(c(CNC56CC7CC(CC(C7)C5)C6)c(O)c4c3C2=O)NC(=O)/C(C)=C\C=C\[C@H](C)[C@H](O)[C@@H](C)[C@@H](O)[C@@H](C)[C@H](OC(C)=O)[C@@H]1C

RESULT:
1: 8; 2: 4; 3: 1

Give measured MIC for every item shown.
1. CO[C@H]1/C=C/O[C@@]2(C)Oc3c(C)c(O)c4c(O)c(c(/C=N/N5CCCCC5)c(O)c4c3C2=O)NC(=O)/C(C)=C\C=C\[C@H](C)[C@H](O)[C@@H](C)[C@@H](O)[C@@H](C)[C@H](OC(C)=O)[C@@H]1C
2. CO[C@H]1/C=C/O[C@@]2(C)Oc3c(C)c(O)c4c(O)c(c(/C=N/NC(C)(C)C)c(O)c4c3C2=O)NC(=O)/C(C)=C\C=C\[C@H](C)[C@H](O)[C@@H](C)[C@@H](O)[C@@H](C)[C@H](OC(C)=O)[C@@H]1C
3. CO[C@H]1/C=C/O[C@@]2(C)Oc3c(C)c(O)c4c(O)c(c(/C=N/NC5=NCCN5)c(O)c4c3C2=O)NC(=O)/C(C)=C\C=C\[C@H](C)[C@H](O)[C@@H](C)[C@@H](O)[C@@H](C)[C@H](OC(C)=O)[C@@H]1C
4. CO[C@H]1/C=C/O[C@@]2(C)Oc3c(C)c(O)c4c(O)c(c(CN5CCC6(CC5)NCCc5ccccc56)c(O)c4c3C2=O)NC(=O)/C(C)=C\C=C\[C@H](C)[C@H](O)[C@@H](C)[C@@H](O)[C@@H](C)[C@H](OC(C)=O)[C@@H]1C
5. CO[C@H]1/C=C/O[C@@]2(C)Oc3c(C)c(O)c4c(O)c(c(CN5CCN(C)C6(CCN(C)CC6)C5)c(O)c4c3C2=O)NC(=O)/C(C)=C\C=C\[C@H](C)[C@H](O)[C@@H](C)[C@@H](O)[C@@H](C)[C@H](OC(C)=O)[C@@H]1C
6. CO[C@H]1/C=C/O[C@@]2(C)Oc3c(C)c(O)c4c(O)c(c5c(nc6cc(C)ccn65)c4c3C2=O)NC(=O)/C(C)=C\C=C\[C@H](C)[C@H](O)[C@@H](C)[C@@H](O)[C@@H](C)[C@H](OC(C)=O)[C@@H]1C

RESULT:
1. 0.5
2. 8
3. 1
4. 4
5. 2
6. 8

----------
Experiment: Solubility of the compound in water at pH 7 by UV-vis spectrophotometric analysis
Type: physicochemical
Assay readout: solubility (µg/mL)
One number for each entry, in µg/mL.

CO[C@H]1/C=C/O[C@@]2(C)Oc3c(C)c(O)c4c(O)c(c(CNCC(=O)N5CCCCC5)c(O)c4c3C2=O)NC(=O)/C(C)=C\C=C\[C@H](C)[C@H](O)[C@@H](C)[C@@H](O)[C@@H](C)[C@H](OC(C)=O)[C@@H]1C	120
CO[C@H]1/C=C/O[C@@]2(C)Oc3c(C)c(O)c4c(O)c(c(CNC5CCCC(C(N)=O)C5)c(O)c4c3C2=O)NC(=O)/C(C)=C\C=C\[C@H](C)[C@H](O)[C@@H](C)[C@@H](O)[C@@H](C)[C@H](OC(C)=O)[C@@H]1C (some centres not stated)	150
CO[C@H]1/C=C/O[C@@]2(C)Oc3c(C)c(O)c4c(O)c(c(CN5CCN(c6ncccn6)CC5)c(O)c4c3C2=O)NC(=O)/C(C)=C\C=C\[C@H](C)[C@H](O)[C@@H](C)[C@@H](O)[C@@H](C)[C@H](OC(C)=O)[C@@H]1C	50
CCS(=O)(=O)N1CCN(Cc2c3c(O)c4c(O)c(C)c5c(c4c2O)C(=O)[C@@](C)(O/C=C/[C@H](OC)[C@@H](C)[C@@H](OC(C)=O)[C@H](C)[C@H](O)[C@H](C)[C@@H](O)[C@@H](C)/C=C/C=C(/C)C(=O)N3)O5)CC1	1730
CO[C@H]1/C=C/O[C@@]2(C)Oc3c(C)c(O)c4c(O)c(c(CN5CCC(NS(C)(=O)=O)CC5)c(O)c4c3C2=O)NC(=O)/C(C)=C\C=C\[C@H](C)[C@H](O)[C@@H](C)[C@@H](O)[C@@H](C)[C@H](OC(C)=O)[C@@H]1C	36400

Give measured solubility for every item shown.
1. CO[C@H]1/C=C/O[C@@]2(C)Oc3c(C)c(O)c4c(O)c(c(CN5CCC(N(C)C)CC5)c(O)c4c3C2=O)NC(=O)/C(C)=C\C=C\[C@H](C)[C@H](O)[C@@H](C)[C@@H](O)[C@@H](C)[C@H](OC(C)=O)[C@@H]1C
2. CO[C@H]1/C=C/O[C@@]2(C)Oc3c(C)c(O)c4c(O)c(c(CN5CCN(C)CC5)c(O)c4c3C2=O)NC(=O)/C(C)=C\C=C\[C@H](C)[C@H](O)[C@@H](C)[C@@H](O)[C@@H](C)[C@H](OC(C)=O)[C@@H]1C

RESULT:
[1870, 100]

----------
Assay: Lipophilicity, log P of the compound in octanol and water incubated for 1 h under shaking condition
Assay type: physicochemical
Assay readout: logP at 1 h
Answers are plain numbers.

Below, each entry is followed by its recorded logP at 1 h result.
CO[C@H]1/C=C/O[C@@]2(C)Oc3c(C)c(O)c4c(O)c(c(CNCC(=O)N5CCCCC5)c(O)c4c3C2=O)NC(=O)/C(C)=C\C=C\[C@H](C)[C@H](O)[C@@H](C)[C@@H](O)[C@@H](C)[C@H](OC(C)=O)[C@@H]1C	1.35
CO[C@H]1/C=C/O[C@@]2(C)Oc3c(C)c(O)c4c(O)c(c(CNC5CCN(CC(=O)O)CC5)c(O)c4c3C2=O)NC(=O)/C(C)=C\C=C\[C@H](C)[C@H](O)[C@@H](C)[C@@H](O)[C@@H](C)[C@H](OC(C)=O)[C@@H]1C	-1.5
CO[C@H]1/C=C/O[C@@]2(C)Oc3c(C)c(O)c4c(O)c(c(/C=N/N5CCCC5)c(O)c4c3C2=O)NC(=O)/C(C)=C\C=C\[C@H](C)[C@H](O)[C@@H](C)[C@@H](O)[C@@H](C)[C@H](OC(C)=O)[C@@H]1C	3.13

--- query ---
Reported logP at 1 h ( CO[C@H]1/C=C/O[C@@]2(C)Oc3c(C)c(O)c4c(O)c(c(/C=N/N5CCOCC5)c(O)c4c3C2=O)NC(=O)/C(C)=C\C=C\[C@H](C)[C@H](O)[C@@H](C)[C@@H](O)[C@@H](C)[C@H](OC(C)=O)[C@@H]1C ) = 2.79
